meta.source: ChEMBL document CHEMBL5620406

Assay: Acute toxicity in ip dosed BALB/c mouse assessed as maximum tolerated dose measured on day 14
Assay type: organism-based
Conditions: in vivo, time 14 day
Assay readout: MTD at 336 h

>>> experimental_value("Cc1cc(C(=O)Nc2ccc(OC(F)(F)F)cc2)nn1Cc1cccc(N2CCN(C(=O)C3CC3)CC2)c1")
"~6 mg/kg"
>>> experimental_value("Cc1cc(C(=O)Nc2ccc(C(F)(F)F)cc2)nn1Cc1cccc(N2CCN(C(=O)C3CC3)CC2)c1")
"~6 mg/kg"

* * *

Each entry below carries its recorded efflux ratio at 2 h.
Assay: Efflux ratio of apparent permeability across basolateral to apical membrane to apical to basolateral membrane in human Caco-2 cells incubated for 120 mins by LC-MS/MS analysis
Assay type: ADME, cell-based
Assay readout: efflux ratio at 2 h

>>> experimental_value("Cc1nc(-c2nc(-c3ccc(OC(F)(F)F)cc3)no2)nn1Cc1cccc(N2CCC(S(C)(=O)=O)CC2)c1")
0.68
>>> experimental_value("Cc1cc(C(=O)Nc2ccc(OC(F)(F)F)cc2)nn1Cc1cccc(N2CCN(C(=O)C3CC3)CC2)c1")
0.57
>>> experimental_value("Cc1cc(C(=O)Nc2ccc(C(F)(F)F)cc2)nn1Cc1cccc(N2CCN(C(=O)C3CC3)CC2)c1")
0.53
